Recorded protein stability index by entry
B1: TRIM63 (parent)
chain: ANPYWTSRGSSVSMSGGRFRCPTC

- Variants of: B1
- protocol-notes: protein stability index of a GFP-peptide fusion (GPS, HEK-293T) (PSI 1-6); higher = more stable;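 also: lentivirally expressed fusions sorted by FACS into six bins by GFP to DsRed ratio, PSI derived from sequencing read proportions per bin multiplied by bin number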
- details: c terminus: a fixed tail appended
Give your answer as a number; write no unit.

Consider the following illustrative entries.
| alteration | protein stability index |
| --- | --- |
| T6R | 2.2 |
| R20T | 1.78 |

Prompt: Field request: protein stability index | item: "S10L"
Completion: 1.46

Prompt: Field request: protein stability index | item: "Y4V"
Completion: 1.56

Prompt: Field request: protein stability index | item: "C24S"
Completion: 2.88

Prompt: Field request: protein stability index | item: "A1T"
Completion: 1.88

Prompt: Field request: protein stability index | item: "C24Y"
Completion: 3.28

Prompt: Field request: protein stability index | item: "R8S"
Completion: 1.65

Prompt: Field request: protein stability index | item: "R20Q"
Completion: 1.84

Prompt: Field request: protein stability index | item: "G17V"
Completion: 2.77

Prompt: Field request: protein stability index | item: "C24T"
Completion: 2.69

Reference for the values: the supplement of paper PMC10567573
